molecular target: Kynurenine--oxoglutarate transaminase 1 (Homo sapiens); test: Inhibition of human recombinant KAT1 after 20 mins by RP-HPLC analysis
Sequence (Q16773 whole entry): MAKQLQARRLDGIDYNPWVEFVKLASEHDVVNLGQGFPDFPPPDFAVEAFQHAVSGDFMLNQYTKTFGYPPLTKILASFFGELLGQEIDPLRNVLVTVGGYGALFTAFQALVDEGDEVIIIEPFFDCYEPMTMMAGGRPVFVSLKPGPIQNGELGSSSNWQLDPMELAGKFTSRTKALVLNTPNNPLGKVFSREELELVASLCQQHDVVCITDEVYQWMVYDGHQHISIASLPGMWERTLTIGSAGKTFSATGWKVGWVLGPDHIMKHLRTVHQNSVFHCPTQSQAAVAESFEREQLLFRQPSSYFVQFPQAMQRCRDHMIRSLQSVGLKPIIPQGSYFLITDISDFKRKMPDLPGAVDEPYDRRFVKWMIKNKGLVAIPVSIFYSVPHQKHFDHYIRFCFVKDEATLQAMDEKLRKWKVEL
observable: IC50 (µM)

Recorded IC50, per entry:
CCOC(=O)/C(CCCC(=O)O)=N\Nc1ccc(C)cc1	33
CCOC(=O)/C(CCCC(=O)O)=N\Nc1cccc(Cl)c1	20
CCOC(=O)/C(CCCC(=O)O)=N\Nc1ccc(Br)cc1	21
O=C(O)CCc1c(C(=O)O)[nH]c2ccc(Br)cc12	271

a = O=C(O)CCc1c(C(=O)O)[nH]c2ccc(Cl)cc12
b = CCOC(=O)/C(CCCC(=O)O)=N\Nc1ccc(OC)cc1
c = CCOC(=O)/C(CCCC(=O)O)=N\Nc1ccc([N+](=O)[O-])cc1
d = CCOC(=O)/C(CCCC(=O)O)=N\Nc1ccc(Cl)cc1
e = O=C(O)CCc1c(C(=O)O)[nH]c2ccc([N+](=O)[O-])cc12
Incoming: Arrange the 5 molecules from largest to smallest IC50. I'd appreciate it if you listed the labels in the requested order.
Outgoing: e, a, c, b, d
